# protocolDescription: Dissociation constant, pKa of the compound
# Format: physicochemical
propertyMeasured: pKa
Returns: the value as a bare number; no unit string appended.

See these solved cases before continuing.
mol | observedResult
O=P(O)(O)Cc1ccc(S)cc1 | 6.6
O=C(O)c1ccc(S)cc1 | 5.95
O=S(=O)(O)c1ccc(S)cc1 | 5.7

Proceed to the following item.
[Q] Find the recorded pKa belonging to C[N+](C)(C)Cc1ccc(S)cc1 and report it.
[A] 5.5
